Reference for the values: ChEMBL document CHEMBL4513216

- Tested on: Plasmodium berghei
- method: Screen against P. berghei liver stage (PbLuc), transformed with Luciferase, at 2uM
- Assay type: functional, HepG2
- experimental.parameters: tested at 2 uM
The whole screen tested about 68,000 compounds, of which about 2,700 (4%) showed an effect of 50% or more. This is one part of a sample in which strong results are shown more often than they occur.
This listing pairs compounds with measured INHIBITION.
# output: bare number, implied unit %

Answered examples (5):
INSERT INTO results (compound, measured_metric, reported) VALUES
  ('COc1ccc(NC(C)c2ccc(C#N)cc2)cc1N1CCCC1=O (stereo unspecified)', 'INHIBITION', -50.8),
  ('CCCS(=O)(=O)N1C[C@@H]2CN(Cc3ccoc3)CCO[C@@H]2C1', 'INHIBITION', 33.4),
  ('Cc1cccc(CCC(=O)Nc2ccnn2C2CCS(=O)(=O)C2)c1 (stereo unspecified)', 'INHIBITION', 62.13),
  ('Cc1noc(C)c1CN1CCc2ncnc(-c3ccoc3)c2CC1', 'INHIBITION', -15.88),
  ('CCN(Cc1ccccc1)C(=O)CN1CCOC(Cn2cncn2)C1 (stereo unspecified)', 'INHIBITION', 32.41);

Then there is this compound:
# query: INHIBITION of entry COc1nc2c(cc1C(=O)N1CCCOC(CN3CCCC3)C1)CCC2 (stereo unspecified)
-8.45

---

- Tested on: Plasmodium berghei
- method: Screen against P. berghei liver stage (PbLuc), transformed with Luciferase, at 2uM
- Type: functional, HepG2
- experimental.parameters: tested at 2 uM
The whole screen tested about 68,000 compounds, of which about 2,700 (4%) showed an effect of 50% or more. Many of the other results were omitted from the sample, so strong results are more common in it than they were.
This listing pairs compounds with measured INHIBITION.
# output: bare number, implied unit %

INSERT INTO assay_data (compound, measured_metric, reported) VALUES
  ('CC(=O)N1CCC2(CC1)COCCN2CCN(C)C', 'INHIBITION', 0.04);

# query: INHIBITION | item "Cc1ccc(C(=O)N2C[C@H]3CN(Cc4csc(C)n4)C[C@H]3C2)cn1" | system: Plasmodium berghei
5.38

# query: INHIBITION | item "CCNC(=O)[C@@H]1C[C@H](NC(=O)c2cc(=O)[nH]c3ccc(C)cc23)CN1C" | system: Plasmodium berghei
24.44

# query: INHIBITION | item CS(=O)(=O)N1CCCCC12CCCN(Cc1nccs1)C2 (stereo unspecified) | system: Plasmodium berghei
-14.74

# query: INHIBITION | item CN(Cc1cccc(F)c1)C(=O)CN1CCOC(Cn2cccn2)C1 (stereo unspecified) | system: Plasmodium berghei
20.28

# query: INHIBITION | item Nc1cc(N2CCCC2c2cnccn2)ncn1 (stereo unspecified) | system: Plasmodium berghei
30.38

# query: INHIBITION | item "O=C(Nc1cccc(CNCc2csc(Br)c2)c1)C1CC1" | system: Plasmodium berghei
-0.64

# query: INHIBITION | item "CS(=O)(=O)N1CCC(NCC2(N3CCOCC3)CCCCC2)CC1" | system: Plasmodium berghei
7.67

# query: INHIBITION | item "COC(=O)[C@@H]1C[C@H](NC(=O)c2cc(=O)[nH]c3ccc(C)cc23)CN1C" | system: Plasmodium berghei
76.07

# query: INHIBITION | item Cc1nc(-c2ccccc2)sc1CNC1CCc2ncnn2C1 (stereo unspecified) | system: Plasmodium berghei
-21.39

# query: INHIBITION | item "Cc1ccc2[nH]c(=O)cc(C(=O)N[C@@H]3C[C@@H](CO)N(C)C3)c2c1" | system: Plasmodium berghei
10.75
